Target: BACE1 (Homo sapiens, UniProt P56817)
Construct: recombinant BACE1 protein in a final concentration of 1 mg/ml
Sequence (P56817 46-501): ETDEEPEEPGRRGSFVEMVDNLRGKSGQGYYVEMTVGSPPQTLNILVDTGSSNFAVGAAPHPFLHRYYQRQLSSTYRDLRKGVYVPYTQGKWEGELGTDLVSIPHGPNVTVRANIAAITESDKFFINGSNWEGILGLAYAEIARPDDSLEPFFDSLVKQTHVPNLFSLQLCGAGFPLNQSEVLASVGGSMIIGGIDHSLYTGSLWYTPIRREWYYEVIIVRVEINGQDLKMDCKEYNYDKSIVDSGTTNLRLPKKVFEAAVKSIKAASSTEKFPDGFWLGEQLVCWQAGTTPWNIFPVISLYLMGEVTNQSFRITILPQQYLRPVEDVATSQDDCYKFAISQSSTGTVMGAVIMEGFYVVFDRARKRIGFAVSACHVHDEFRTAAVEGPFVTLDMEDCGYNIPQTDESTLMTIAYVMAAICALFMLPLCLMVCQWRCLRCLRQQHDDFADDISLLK
Test: Biochemical FRET based assay
Details: recombinant BACE1 protein, APP derived 13 amino acids peptide substrate ('Swedish' mutation), 120 minutes at room temperature, pH 5.0; read-out: Biochemical FRET based assay pIC50 (converted)
parameter.measured: IC50 (µM)

1. COc1cccnc1Nc1ccc(F)c([C@@]2(C)N=C(N)COC2=C(F)F)c1 [Compound 3] = 0.759

(1) COc1cccnc1Nc1ccc(F)c([C@@]2(C)N=C(N)COC2C(F)F)c1 (single isomer, unassigned) [Compound 4]
(2) COc1cccnc1Nc1ccc(F)c([C@@]2(C)N=C(N)CO[C@H]2C(F)(F)F)c1 [Compound 6]
Lowest IC50? choose 1 or 2 Could you answer with the label of the item you picked?
1
(1: 0.0589 µM, 2: 0.138 µM)

(a) CC1(c2cc(Nc3ncccc3C#N)ccc2F)N=C(N)COC1F (stereo not drawn) [Compound 9]
(b) COc1cccnc1Nc1cccc([C@@]2(C3CC3)N=C(N)CO[C@@]2(F)C(F)(F)F)c1 [Compound 1]
(c) C[C@]1(c2cc(Nc3ncccn3)ccc2F)N=C(N)CO[C@H]1C(F)(F)F [Compound 7]
(d) C[C@]1(c2cc(Nc3ncccn3)ccc2F)N=C(N)CO[C@@H]1F [Compound 5]
List these items ordered by IC50, big to small. Give the labels in the order specified.
c, d, a, b
(c: 3.72 µM, d: 1.95 µM, a: 0.224 µM, b: 0.0263 µM)

(1) COc1cccnc1Nc1ccc(F)c([C@@]2(C)N=C(N)CO[C@@H]2F)c1 [Compound 2]
(2) COc1nccnc1Nc1ccc(F)c([C@@]2(C)N=C(N)CO[C@@H]2F)c1 [Compound 8]
Would you let me know which has the greater IC50 value, 1 or 2 ? Returns: label corresponding to the selected item.
2

Source of measurements: patent US20140364428A1
